molecular target: SMYD3 (Homo sapiens (Human)); assay: SMYD3 biochemical assay (SMYD3 enzyme assay on MEKK2 protein substrate, 3H-SAM scintillation proximity assay); conditions: read-out: SMYD3 Biochem IC50
Sequence (Q9H7B4 whole entry): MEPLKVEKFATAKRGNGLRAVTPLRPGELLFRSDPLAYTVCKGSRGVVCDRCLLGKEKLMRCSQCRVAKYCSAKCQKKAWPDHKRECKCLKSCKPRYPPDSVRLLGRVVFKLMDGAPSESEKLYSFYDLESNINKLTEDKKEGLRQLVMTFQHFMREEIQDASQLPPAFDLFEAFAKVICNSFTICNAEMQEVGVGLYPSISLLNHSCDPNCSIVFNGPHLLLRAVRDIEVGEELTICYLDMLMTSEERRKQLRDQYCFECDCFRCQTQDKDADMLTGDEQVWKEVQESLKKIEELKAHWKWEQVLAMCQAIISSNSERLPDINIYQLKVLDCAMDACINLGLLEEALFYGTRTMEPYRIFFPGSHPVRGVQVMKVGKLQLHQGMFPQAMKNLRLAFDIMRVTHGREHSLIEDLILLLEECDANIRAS
pIC50: −log10 of the molar value.
Measurement Type: pIC50

Guide cases for pIC50, answers given:
1. Cc1cnccc1C(=O)N[C@H]1CC[C@H](NC(=O)CCN)CC1 ... < 4.00
2. Cn1nc(C(C)(C)C)cc1C(=O)N[C@H]1CC[C@H](N)CC1 ... < 4.00
3. CC(NC(=O)c1ccc2c(c1)no[n+]2[O-])C1CCN(C(=O)[C@H](C)N)CC1 (some centres unmarked) ... < 4.00
4. CC(NC(=O)c1ccc(-c2ccccc2)cc1)C1CCN(C(=O)[C@H](C)N)CC1 (some centres unmarked) ... < 4.00
5. NCCC(=O)N[C@H]1CC[C@H](NC(=O)c2ccc3cc[nH]c3c2)CC1 ... 4.43

Reported pIC50 of N[C@H]1CC[C@H](NC(=O)c2ccc(N3CCCC3)cc2)CC1 : 4.32

Reported pIC50 of CC(NC(=O)c1ccc2c(c1)CCCC2)C1CCN(C(=O)[C@H](C)N)CC1 (some centres unmarked) : 4.23

Reported pIC50 of NS(=O)(=O)c1ccc(C(=O)N[C@H]2CC[C@H](N)CC2)cc1 : < 4.00

Reported pIC50 of N[C@H]1CC[C@H](NC(=O)c2ccc3c(c2)C(=O)C(=O)N3)CC1 : 5.13

Reported pIC50 of CC(NC(=O)c1cc2c(cc1Cl)NC(=O)C2)C1CCN(C(=O)[C@H](C)N)CC1 (some centres unmarked) : 6.37

Reported pIC50 of N[C@H]1CC[C@H](NC(=O)c2cncnc2O)CC1 : < 4.30

Data origin, for the record: patent US10266526B2
